Origin of values: PubChem BioAssay (NCI)

System: BT-549 breast
Assay: NCI tumour cell line growth inhibition, 48 h
measured endpoint: TGI

compound	system name	result
CCc1nc2c(c(N(C)C)c1C(=O)OC)CCc1ccccc1-2	BT-549 breast	> 100 µM
C=C1[C@@H]2CCC3[C@]4(C)C(CC[C@@]5(C)C(=O)O[C@H](O)[C@@H]45)[C@H](O)[C@]3(C2)[C@H]1OC1OC(CO)C(O)C(O)C1O (stereo not given in full)	BT-549 breast	> 50 µM
O=C[C@@H](CO)O[C@H](C=O)n1cnc2c(=O)[nH]cnc21	BT-549 breast	2370 µM
O=C(O)c1ccc(SSc2ccc(C(=O)O)cn2)nc1	BT-549 breast	> 100 µM
COc1ccc(C2C=C(c3ccc(C)cc3)N(c3ccc(OC)cc3[N+](=O)[O-])C3C(=O)OC(=O)C23)c(OC)c1 (stereo not given)	BT-549 breast	> 100 µM
CC(C)=CCC[C@@H](C)C1=C(Nc2ccccc2F)C(O)=C(C)C(=O)C1=O	BT-549 breast	> 100 µM
O=C1NC(c2ccccc2)C2(C(=O)O)CN(C3CC3)c3cc(N4CCNCC4)c(F)cc3C2N1 (stereo not given)	BT-549 breast	> 100 µM
CC1(C)OCC(C2OC(C)(C)OC2[C@H]2O[C@@]3(O)[C@H]4[C@H](C=CC[C@@H]42)[C@@H](OCc2ccccc2)[C@H](OCc2ccccc2)[C@H]3OCc2ccccc2)O1 (stereo not given in full)	BT-549 breast	> 100 µM
CCOC(=O)/C=C/c1cccc(F)c1	BT-549 breast	> 100 µM
CCn1ncc2c(=O)n3ncn(-c4ccc(Br)cc4)c3nc21	BT-549 breast	> 100 µM
CN1C2=Nc3n(c4ccccc4[n+]3C)CN2c2ccccc21	BT-549 breast	> 100 µM
CS(=O)(=O)N(c1cc(-c2ccc3ncnc(Nc4ccc(F)c(Cl)c4)c3c2)cnc1Cl)S(C)(=O)=O	BT-549 breast	5.06 µM
COc1ccc2c(c1OC)C(=O)N1C2=Cc2c(cc3c(c2OC)OCO3)CC1N(C)C (stereo not given)	BT-549 breast	> 100 µM
CCN(CC)CCCCNc1c2ccc(Cl)cc2nc2ccc(OC)cc12	BT-549 breast	3.77 µM
O=c1/c(=N\Nc2ccccc2)c2cccc3ccc4cccc1c4c32	BT-549 breast	> 100 µM
Cn1c(=O)cc(NNc2ccc(Cl)c(Cl)c2)[nH]c1=O	BT-549 breast	29.9 µM
CCOC(=O)C(NC(=O)c1cccc(Cl)c1)(Nc1cccc(C)c1)C(F)(F)F (stereo not given)	BT-549 breast	26.1 µM
NC(=O)NN=C1Cc2ccccc2C1	BT-549 breast	> 100 µM
CC1=NN2C(=N)/C(=C/c3ccc(F)cc3)C(=O)N=C2S1	BT-549 breast	> 100 µM
N#Cc1c(-c2ccc([N+](=O)[O-])cc2)c(C#N)c(=O)n(NS(=O)(=O)c2ccccc2)c1O	BT-549 breast	> 100 µM

###

Let's look at some compounds and their measured TGI.
System: UACC-257 melanoma
Experiment: NCI tumour cell line growth inhibition, 48 h

compound	TGI
Oc1ccccc1/C=N/N1C(=S)N(C23CC4CC(CC(C4)C2)C3)C(=Nc2ccccc2)C1=Nc1ccccc1	> 100 µM
CCCCn1c(=O)c(/C=C/C(=O)/C=C/c2cc3ccccc3n(CCCC)c2=O)cc2ccccc21	3 µM
C[C@H]1[C@H](C)CC[C@]2(C(=O)OC3OC(CO)C(O)C(O)C3O)CC[C@]3(C)C(=CC[C@@H]4[C@@]5(C)C[C@@H](O)[C@@H]6OC(=O)c7cc(O)c(O)c(O)c7-c7c(cc(O)c(O)c7O)C(=O)OC[C@@]6(CO)[C@@H]5CC[C@]43C)[C@H]12 (some centres not stated)	> 100 µM
CCOC(=O)N1CCN(c2c(N)nc(C)[nH]c2=O)CC1	> 100 µM
O=C1CC[C@@]23CC(=O)O[C@@H]2CCCC3C1 (some centres not stated)	> 100 µM
CCOC(=O)c1csc(NC(=O)CCN2CCN(C)CC2)n1	> 100 µM
CC(C)(C)c1ccnc(N=C2N=C(Nc3cc(C(C)(C)C)ccn3)c3ccccc32)c1	76.1 µM
CN(C)CCCNC(=O)N/N=C/c1ccccc1	> 100 µM
O=C([O-])CC(=O)[O-].[NH-][C@@H]1CCCC[C@H]1[NH-].[Pt+4]	> 100 µM
CNC(=O)c1cncc(/C=C/c2ccccc2Cl)c1	> 25 µM
Nc1cccc2c1C(=O)c1cccc(NC(=O)c3ccccc3)c1C2=O	64.8 µM
O=C1NC(c2ccccc2)C2(C(=O)O)CN(C3CC3)c3cc(N4CCNCC4)c(F)cc3C2N1 (configuration not stated)	> 100 µM
CC1(C)N=C(N)N=C(N)N1c1cccc(Cl)c1	> 100 µM
CCOC(=O)C1=C(C)NC(c2ccco2)=C(C#N)C1c1cccc([N+](=O)[O-])c1 (configuration not stated)	26.2 µM
O=C1CSC(c2c[nH]c3ccccc23)N1c1ccc(Cl)cc1Cl (configuration not stated)	> 100 µM
C[C@@H]1CC[C@@]2(NC1)O[C@H]1C[C@H]3[C@@H]4CC[C@H]5C[C@@H](O)CC[C@]5(C)[C@H]4CC[C@]3(C)[C@H]1[C@@H]2C	> 100 µM
C[As+](C)(c1ccc(Br)c([N+](=O)[O-])c1)c1ccc(Br)c([N+](=O)[O-])c1.O=[N+]([O-])O	> 100 µM

###

Test system: HOP-92 NSCLC
Test: NCI tumour cell line growth inhibition, 48 h
Let's look at some compounds and their measured TGI.
measured endpoint: TGI

compound	measured endpoint	result
CC[C@]12C=CCN3CCC4(c5cc([C@@]6(C(=O)OC)CC7CN(CCc8c6[nH]c6ccccc86)CC6CCCCC67)c(OC)cc5N(C)C4[C@](O)(C(=O)OC)C1OC(C)=O)[C@@H]32 (stereo partly drawn)	TGI	1.5 µM
CC1(C)OCC(C2OC(C)(C)OC2[C@H]2O[C@@]3(O)[C@H]4[C@H](C=CC[C@@H]42)[C@@H](OCc2ccccc2)[C@H](OCc2ccccc2)[C@H]3OCc2ccccc2)O1 (stereo partly drawn)	TGI	> 100 µM
CC1(C)CCC[C@]2(C)c3ccccc3C(=O)CC12 (stereo partly drawn)	TGI	> 100 µM

###

System: A498 renal
Assay: NCI tumour cell line growth inhibition, 48 h
measured endpoint: TGI (µM)

> print(dat)
                                   compound  system.name  measured.endpoint  inequality.sign  readout.number
1  COc1ccc(C2C=C(c3ccc(C)cc3)N(c3ccc(OC)cc3[N+](=O)[O-])C3C(=O)OC(=O)C23)c(OC)c1 (stereo not given)   A498 renal                TGI                >             100
2  CCn1c2ccccc2c2cc(C(=O)c3ccc(C)c4ccccc34)ccc21   A498 renal                TGI                =            1.15
3  CO/N=C(\COc1ccc2oc(-c3ccccc3)cc(=O)c2c1)c1ccc(F)cc1   A498 renal                TGI                =            82.9
4      CCN(CC)C(=S)N/N=C(/c1ccccc1)c1ccccn1   A498 renal                TGI                =            2.38
5        O=C(c1ccc([N+](=O)[O-])cc1)N1CCCC1   A498 renal                TGI                >             100

###

Tested on: HCT-15 colon
Experiment: NCI tumour cell line growth inhibition, 48 h
measured endpoint: TGI

> print(dat)
                                    compound    result
 1  Cc1ccc(C)c(COCCOCn2cc(N3CCOCC3)c(=O)[nH]c2=O)c1  > 100 µM
 2                 CS(=O)(=O)Nc1ccc2ccccc2c1  > 100 µM
 3  C[CH2][Sn]([CH2]C)([O]C(=O)c1ccc(F)cc1)[O]C(=O)c1ccc(F)cc1   > 63 µM
 4   Cc1ccc(C(=O)NC2CC2)cc1-c1ccc2[nH]ncc2c1   > 25 µM
 5  NC(=O)c1ccc[n+](C2=C([O-])c3ccccc3C(=O)/C2=N\S(=O)(=O)c2ccccc2)c1   95.9 µM
 6     CCOC(=O)N1CCN(c2c(N)nc(C)[nH]c2=O)CC1  > 100 µM
 7          CCOC(=O)c1csc(NC(=O)CCN2CCCC2)n1  > 100 µM
 8  CC1SC(c2ccc(Cl)cc2Cl)N(NC(=O)C(O)c2ccccc2)C1=O (stereo unspecified)  > 100 µM
 9  O=c1c2ccc(Cl)cc2oc2c(CNc3ccc(S(=O)(=O)Nc4ncccn4)cc3)cccc12  > 100 µM
10  CC1c2[nH]c3ccccc3c2CCN1O (stereo unspecified)  > 100 µM
11  CN1c2ccccc2C2=C(c3ccccc3)CC[C@@H](C(=O)N3C4CC5CC[C@@]4(CS3(=O)=O)C5(C)C)[C@@H]21 (stereo partly specified)  > 100 µM
12  O=C(/C=C/C12c3ccccc3C(c3ccccc31)C1C(=O)NC(=O)C12)c1ccccc1 (stereo unspecified)   6.84 µM
13  Cc1cc(S(=O)(=O)N=C2Nc3cccc4cccc(c34)N2)c(S)cc1Cl  > 100 µM
14  CC1=C(C)SC(=C2Sc3c(n(C)c(=O)n(C)c3=O)S2)S1  > 100 µM
15  COc1ccc2nc3cc(Cl)ccc3c(Nc3cc(CN4CCCC4)c(O)c(CN4CCCC4)c3)c2n1   10.6 µM
16   CCc1nc2c(c(N(C)C)c1C(=O)OC)CCc1ccccc1-2  > 100 µM
17  CCCCN(CCCC)CC(C(C)=O)C(c1ccccc1)c1c(O)c2ccccc2oc1=O (stereo unspecified)  > 100 µM
18  N#Cc1cccc(C2C3=C(COC3=O)N(CCO)c3cc4c(cc32)OCO4)c1 (stereo unspecified)   > 50 µM
19  CC[C@H](NC(=O)OC(C)(C)C)C(=O)NCP(=O)(OCc1ccc([N+](=O)[O-])cc1)OCc1ccc([N+](=O)[O-])cc1  > 100 µM
20  CCCCn1c(=O)c(/C=C/C(=O)/C=C/c2cc3ccccc3n(CCCC)c2=O)cc2ccccc21   2.87 µM
21  CC(=O)NN1C(=O)C(Cc2ccccc2)c2ccccc21 (stereo unspecified)  > 100 µM
